Target: Cannabinoid receptor 2 (Homo sapiens, UniProt P34972, A282M)
Sequence (P34972 whole entry A282M): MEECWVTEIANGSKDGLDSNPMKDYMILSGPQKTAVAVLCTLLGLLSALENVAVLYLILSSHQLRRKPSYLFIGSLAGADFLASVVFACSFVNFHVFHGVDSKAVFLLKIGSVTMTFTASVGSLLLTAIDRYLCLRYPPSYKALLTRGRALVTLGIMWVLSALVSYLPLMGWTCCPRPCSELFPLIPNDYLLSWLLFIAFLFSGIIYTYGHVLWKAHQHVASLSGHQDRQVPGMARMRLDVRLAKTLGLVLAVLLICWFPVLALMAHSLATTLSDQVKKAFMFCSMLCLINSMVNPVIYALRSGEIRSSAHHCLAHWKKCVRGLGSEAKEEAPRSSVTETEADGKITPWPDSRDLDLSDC
Assay: Partial agonist activity at CBR2 A2827.36M mutant (unknown origin) expressed in HEK293T assessed as increase in ERK1/2 phosphorylation incubated for 7 mins in presence of cannabidiol by AlphaScreenSureFire method
Format: functional, cell-based
reported.property: pEC50
Value format note: pEC50 is -log10 of concentration (mol/L); just state the number.

Task: Need pEC50 of CCCC(C)(C)c1cc(O)c2c(c1)OC(C)(C)[C@@H]1CC=C(C)C[C@@H]21 , thanks.
Output: 7.90

----------
Molecular target: Cannabinoid receptor 2 (Homo sapiens, UniProt P34972, V36M)
Sequence (P34972 whole entry V36M): as the sequence (P34972 whole entry A282M) above, with V36M, M282A counted along it
Experiment: Partial agonist activity at CBR2 V361.35M mutant (unknown origin) stably expressed in HEK293T assessed as decrease in forskolin induced cAMP level preincubated for 15 mins followed by forskolin addition incubated for 15 mins in presence of cannabidiol by HTRF assay
Assay type: functional, cell-based
reported.property: EC50

Task: Need EC50 of CCCC(C)(C)c1cc(O)c2c(c1)OC(C)(C)[C@@H]1CC=C(C)C[C@@H]21 , thanks.
Output: 0.0158 µM
